Each recorded value in this set is attributed to PubChem BioAssay (NCI).

# Tested on: U251 CNS
# experiment.description: NCI-60 one-dose screen, 48 h
# test.context: 10 µM unless noted
This is part of a sample that, as a whole, favours compounds with a hit. Of some 83,000 tested, about 20% had one in any assay. Calls of active or inactive are those of the source. The calls were made as follows: active = growth percent below 10; inactive = the rest.
Respond with a class label; see y (active), n (inactive)

Worked examples follow.
INSERT INTO measurements (compound, assigned_class) VALUES
  ('Nc1ccn(C2OC(CO)C(O)C2F)c(=O)n1 (centres undefined)', 'n'),
  ('CCCCCCCCNC(=O)C(C)C', 'n'),
  ('COc1cc(C(=O)O)c(O)c(C(C)(C)C)c1', 'n'),
  ('Nc1ncnc2c1ncn2C1OC(CO)C2OC21 (centres undefined)', 'n'),
  ('CCCCn1cnc2c(=O)[nH]cnc21', 'n');

[in] Per the assay record, what outcome was assigned to "COc1cc(CC#N)c([N+](=O)[O-])cc1OC" ?
[out] n

[in] Each compound tested received a call. Report the one for "Clc1ccc(-c2noc(/C=C\c3ccccc3)n2)cc1" .
[out] n

[in] Could you please tell me the result logged for "Cc1cc(Nc2ccc3c(c2)OCO3)c2cc3c(cc2n1)OCO3" in this assay?
[out] n

[in] Please share the test call associated with "CCN(CC)c1ccc2nc3ccc(N=Nc4ccc(N(C)C)cc4)cc3[n+](-c3ccccc3)c2c1" .
[out] y

* * *

# Test system: HS 578T breast
# experiment.description: NCI-60 one-dose screen, 48 h
# test.context: 10 µM unless noted
Compounds without any hit were thinned out: in the full panel of roughly 83,000, 20% have a hit. The source made the active and inactive calls. The calls were made as follows: active = growth percent below 10; inactive = the rest.
Please reply with one of these outcomes: 1 = active, -1 = inactive

Completed entries (count: 5):
INSERT INTO results (compound, assigned_class) VALUES
  ('NS(=O)(=O)c1cc(=O)[nH]c(=O)[nH]1', -1),
  ('C[n+]1c(/C=C\C=C\N2CCCCC2)sc2ccccc21', -1),
  ('NC(=S)N/N=C/c1ccc(OC(=O)COc2ccc(Cl)cc2)cn1', -1),
  ('CCCCCCCCCCCCCC/C=C\C(CC(=O)O)C(=O)O (stereo not given)', -1),
  ('C/C(=N\Nc1ccc([N+](=O)[O-])cc1[N+](=O)[O-])c1ccc(Br)cc1', -1);

[in] Field: outcome | Entry: Nc1ccn(C2OC(CO)C(O)C2F)c(=O)n1 (stereo not given)
[out] -1

[in] Assay outcome for "Nc1ccc2c(c1)Cc1cc(N)c(N)cc1-2" : what was it?
[out] -1

[in] Test call for this compound, please: "O=C(c1ccccc1O)N1CCCC1"
[out] -1

[in] Kindly provide the recorded test outcome for the following compound: O=C(O)C1CSC(c2ccccc2)N1 (stereo not given)
[out] -1

[in] Per the assay record, what outcome was assigned to N=C(N)c1nn(C2OC(CO)C(O)C2O)c2nc[nH]c(=O)c12 (stereo not given) ?
[out] 1

[in] Recorded call for "CCN(CC)CCN1CNC(=S)NC1" ?
[out] -1

[in] What did this assay record as the result for "Cc1ccc(Cc2ccc(C)cc2)cc1" ?
[out] -1

[in] Assay result, entry "Cn1c(=O)c2[nH]c(CC(=O)O)nc2n(C)c1=O" — outcome?
[out] -1

[in] Hi, do you know how "Cc1ccc(C2CCCCC2)cc1Br" came out in this test?
[out] -1

[in] Call for entry O=C(O)C1CCCN1C(=O)OCc1ccccc1 (stereo not given) :
[out] -1

* * *

# Tested on: 786-0 renal
# experiment.description: NCI-60 one-dose screen, 48 h (100 = growth as untreated, 0 = no growth, -100 = all killed)
# test.context: 10 µM unless noted
The panel holds about 83,000 compounds, 20% with a hit somewhere; the sample as a whole holds those more often.
Collected growth values appear next to each entry.
Give your result in % as a bare value.

# annotated cases, reported growth shown
INSERT INTO measurements (compound, measured_quantity, reading_unit, reported_value) VALUES
  ('Nc1ncnc2c1ncn2C1OC(CO)C2OC21 (stereo not drawn)', 'growth', '%', 108),
  ('CCCCCCCCCCCCCC/C=C\C(CC(=O)O)C(=O)O (stereo not drawn)', 'growth', '%', 103),
  ('CCOC(=O)C(C#N)=C1CCN(C)CC1', 'growth', '%', 110),
  ('CCOc1ccc(C(=O)NCC(C)C)cc1', 'growth', '%', 97.6),
  ('CC(CCC#N)(CCC#N)C(=O)c1ccccc1', 'growth', '%', 110);

[in] Reported growth, compound "COc1ccc(/C=C\C(=O)/C=C/c2ccc(OC)cc2)cc1" : ____
[out] 83.5

[in] # lookup: growth of "C=CCN1CCCC1=O"
[out] 105

[in] May I ask what growth has been recorded for "CS(=O)(=O)c1ccc(/C=C\C(=O)O)cc1" ?
[out] 108

[in] Can you share its growth? I mean this compound: "Cc1ccc([N+](=O)[O-])c(C)n1"
[out] 114

[in] Any idea what growth was measured for "Cc1ccc(C2CCCCC2)cc1Br" ?
[out] 96.4

[in] Endpoint output: growth of "O=C(Nc1c(Cl)cc(Cl)cc1Cl)ON=C1CCCCC1" . Value?
[out] 99.8

[in] # lookup: growth of "Cc1cc(Cl)cc(Cc2cc(Cl)cc(C)c2O)c1O"
[out] 14.9

[in] For "O=C(NCc1ccccc1)c1cccc([N+](=O)[O-])c1" , what is its reported growth?
[out] 94.9

* * *

# System: M14 melanoma
# experiment.description: NCI-60 one-dose screen, 48 h (100 = growth as untreated, 0 = no growth, -100 = all killed)
# test.context: 10 µM unless noted
About 83,000 compounds went through this panel and 20% of them were active in at least one assay; those are over-represented in the sample as a whole.
Listed below: growth values for each entry.
Field: numeric (%). Do not append units.

Examples with their reported growth follow.
INSERT INTO measurements (molecule, measured_quantity, reported_value) VALUES
  ('Clc1cccc(Cl)c1CSc1nc2ccccc2n2cccc12', 'growth', 94.1),
  ('CC1(c2ccccc2)CO1 (stereo unspecified)', 'growth', 108),
  ('C1CCc2onc(-c3noc4c3CCCCC4)c2CC1', 'growth', 112);

[in] What value of growth has been recorded for this entry: Cc1cccnc1NC1OC(=O)c2ccccc21 (stereo unspecified)
[out] 95.7

[in] Quick one: growth of "NC(=O)c1cc2c3ccccc3ccn2c1-c1ccccc1" ?
[out] 11.3

[in] Dear colleague, I am looking for the recorded growth of the following molecule: "Cc1cc2c3ccc(C)[n+](C)c3ccc2n1C"
[out] 92.7

* * *

// reported growth for each item listed
# Tested on: SK-MEL-5 melanoma
# experiment.description: NCI-60 one-dose screen, 48 h (100 = growth as untreated, 0 = no growth, -100 = all killed)
# test.context: 10 µM unless noted
About 83,000 compounds went through this panel and 20% of them were active in at least one assay; those are over-represented in the sample as a whole. Active and inactive are the calls of the source. Rule for the calls: active = growth percent below 10; inactive = the rest.

INSERT INTO results (compound, measured_quantity, reported_value) VALUES
  ('O=C(O)c1ccc(OCc2ccccc2)cc1', 'growth', '96.2% (inactive)'),
  ('OCCc1ccc(Cl)cc1', 'growth', '103% (inactive)');

[in] State the recorded growth for this entry: "COC(=O)Cc1cc(COC(C)=O)ccc1C"
[out] 110% (inactive)

[in] Recorded growth for "COc1ccc(C(=O)C(=O)c2ccccc2)cc1" , please?
[out] 90.7% (inactive)

[in] What value of measured growth is listed for "Ic1cccs1" ?
[out] 104% (inactive)

[in] Given the compound CC(O)C(F)(F)C(F)(F)C(F)(F)F (stereo not drawn) , what is its reported growth?
[out] 101% (inactive)

[in] Item under review: "CCNc1ccc2ccccc2c1N=Nc1ccc(N=Nc2ccccc2)cc1" . Reported growth?
[out] 87.5% (inactive)

[in] I have this compound here, COC1(OC)C2(Cl)C(Cl)=C(Cl)C1(Cl)C1COCC12 (stereo not drawn) , and I need its recorded growth.
[out] 102% (inactive)

[in] Consider the compound shown here: "c1ccc(Nc2ccccn2)nc1" What is its recorded growth?
[out] 103% (inactive)

* * *

# System: MALME-3M melanoma
# experiment.description: NCI-60 one-dose screen, 48 h
# test.context: 10 µM unless noted
Compounds without any hit were thinned out: in the full panel of roughly 83,000, 20% have a hit. Active and inactive are the calls of the source. Rule for the calls: active = growth percent below 10; inactive = the rest.
Respond using exactly one of the listed classes: active, inactive

INSERT INTO assay_data (compound, assigned_class) VALUES
  ('Nc1cc2c(cc1Cl)C(=O)c1ccccc1C2=O', 'inactive'),
  ('CS(=O)CC(=N\O)/C(CS(C)=O)=N\O (centres undefined)', 'inactive'),
  ('COc1ccc(C)cc1NC(=O)SC(C)C', 'inactive'),
  ('O=C(O)CCCCCNC(=O)OCc1ccccc1', 'inactive'),
  ('CCNc1ncnc2[nH]ncc12', 'inactive');

[in] Which result was noted for this compound in the test: "O=C(c1ccc(Cl)cc1)N1CCCCC1"
[out] inactive

[in] Please share the test call associated with "CC(C)N(CCCC#N)C(C)C" .
[out] inactive

[in] Please indicate how the test categorized "Nc1cc2ccccc2c(O)c1O" .
[out] active

[in] Just curious, what result did "CCOP(=O)(OCC)/C(=C\N1C(=O)CC(=O)NC1=S)C(=O)OC" get here?
[out] inactive

[in] // param item: "CN(C)c1ccc2nc3ccc(=[N+](C)C)cc-3oc2c1" ; yields the recorded call
[out] active

[in] Called result for "Cc1cc(=O)n(Nc2ccccc2)c(O)c1C#N"
[out] inactive
